# credit: ChEMBL document CHEMBL5360661

- System: Stimulator of interferon genes protein (Homo sapiens), Q86WV6 [UNDEFINED MUTATION]
- Sequence (Q86WV6 whole entry, looked up, stated change not applied, the tested form may be a part): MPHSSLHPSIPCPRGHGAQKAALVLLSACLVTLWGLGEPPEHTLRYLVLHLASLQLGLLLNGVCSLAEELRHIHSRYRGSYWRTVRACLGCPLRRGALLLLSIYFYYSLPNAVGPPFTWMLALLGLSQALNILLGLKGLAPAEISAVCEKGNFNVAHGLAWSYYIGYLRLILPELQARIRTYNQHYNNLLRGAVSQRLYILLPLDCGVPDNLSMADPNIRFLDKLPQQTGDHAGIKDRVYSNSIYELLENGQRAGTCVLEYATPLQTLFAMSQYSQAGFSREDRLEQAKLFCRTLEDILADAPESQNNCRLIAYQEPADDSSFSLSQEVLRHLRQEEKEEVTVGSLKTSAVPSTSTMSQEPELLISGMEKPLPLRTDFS
- assay summary: Binding affinity to recombinant wildtype human STING R232 variant C-terminal domain (139 to 378 residues) expressed in Escherichia coli BL21 (DE3) cells assessed as thermal stabilization by measuring change in melting temperature at 50 uM incubated at 25 to 95 degreeC for 45 mins by SYPRO orange dye based fluorescence analysis
value kind: ΔTm (°C)

{"query smiles": "N#Cc1ccn(-c2ccc(C(=O)Nc3cc(Cl)c(Cl)cc3C(=O)O)nn2)c1", "value kind": "ΔTm", "measure unit": "°C", "observed value": 6}
{"query smiles": "C#Cc1cc(NC(=O)c2ccc(-n3ccc(C#N)c3)nn2)c(C(=O)O)cc1F", "value kind": "ΔTm", "measure unit": "°C", "observed value": 6}

[1] N#Cc1ccn(-c2ccc(C(=O)Nc3cc(Br)c(Cl)cc3C(=O)O)nn2)c1
[2] CCCn1c(NC(=O)c2cc(C)nn2C)nc2cc(C(N)=O)cc(OC3COC3)c21
Lower ΔTm: 1 or 2 ? Refer to your chosen item by its label in the answer. 2
